- Target Entity: Serine/threonine-protein kinase PAK 4 (Homo sapiens)
- Sequence (O96013 whole entry): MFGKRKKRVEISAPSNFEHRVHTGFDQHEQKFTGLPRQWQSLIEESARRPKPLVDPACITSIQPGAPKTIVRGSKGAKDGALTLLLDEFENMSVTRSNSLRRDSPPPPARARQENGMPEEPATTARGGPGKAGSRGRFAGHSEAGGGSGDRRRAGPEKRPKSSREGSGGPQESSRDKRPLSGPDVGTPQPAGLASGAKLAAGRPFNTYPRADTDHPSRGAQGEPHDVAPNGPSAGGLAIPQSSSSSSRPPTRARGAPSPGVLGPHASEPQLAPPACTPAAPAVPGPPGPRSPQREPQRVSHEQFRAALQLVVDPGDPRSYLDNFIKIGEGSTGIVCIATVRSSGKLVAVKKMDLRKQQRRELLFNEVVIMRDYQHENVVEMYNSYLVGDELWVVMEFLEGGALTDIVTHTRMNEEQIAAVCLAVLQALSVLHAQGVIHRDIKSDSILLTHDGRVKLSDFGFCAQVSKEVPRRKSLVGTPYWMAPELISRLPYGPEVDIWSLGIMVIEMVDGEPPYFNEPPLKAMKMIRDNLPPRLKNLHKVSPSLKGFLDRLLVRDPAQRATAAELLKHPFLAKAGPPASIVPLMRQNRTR
- Test Name: Inhibition of PAK4 (unknown origin) by Z'-LYTE functional assay
Experimental Readout: pIC50
# log scale: pIC50 equals minus log10 of the concentration in mol/L

Task: State the measured pIC50 (Serine/threonine-protein kinase PAK 4 (Homo sapiens)) of `CCn1c(=O)c(-c2ccc(Cl)cc2Cl)cc2cnc(Nc3ccc(N4CCNCC4)c(F)c3)nc21`
Result: 6.11

###

- Test Name: Drug concentration in FVB.129P2 mouse brain at 20 mg/kg,sc and measured after 1 hrs by LC-MS/MS analysis
- Type: ADME, organism-based
- Condition Label: read-out: Ct
Experimental Readout: concentration at 1 h (ng/g)
Form entry: value (ng/g) — number only.

Task: Return concentration at 1 h for the following compound: `CCn1c(=O)c(-c2ccc(Cl)cc2Cl)cc2cnc(Nc3ccc(N4CCNCC4)c(F)c3)nc21`
Result: 155
